All figures here come from patent US11124494B2.

# Tested system: human FPR2 receptors (Homo sapiens (Human), UniProt P25090)
# Sequence (P25090 whole entry): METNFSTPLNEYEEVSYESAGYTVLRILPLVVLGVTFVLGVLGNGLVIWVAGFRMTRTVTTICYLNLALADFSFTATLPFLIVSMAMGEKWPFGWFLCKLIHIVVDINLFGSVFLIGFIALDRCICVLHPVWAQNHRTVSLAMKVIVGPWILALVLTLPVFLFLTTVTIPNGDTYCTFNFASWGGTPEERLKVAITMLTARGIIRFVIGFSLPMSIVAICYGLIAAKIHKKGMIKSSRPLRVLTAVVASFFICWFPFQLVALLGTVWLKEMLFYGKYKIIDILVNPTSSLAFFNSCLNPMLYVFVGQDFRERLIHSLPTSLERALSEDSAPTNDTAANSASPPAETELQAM
# Procedure summary: FPR2 cyclic adenosine monophosphate (cAMP) assay
# Assay type: cell-based
# Setup conditions: hFPR2 Assay, CHO cells overexpressing human FPR2; potency bins; read-out: hFPR2 agonist activity EC50 values
Readout kind: EC50

Here's what some known entries look like.
- Molecule: "CS(=O)(=O)NCC1(c2ccc(N3CCC[C@@H](NC(=O)Nc4ccc(C(F)(F)F)nc4)C3=O)cc2F)CC1"
  Tested system: "human FPR2 receptors (Homo sapiens (Human), UniProt P25090)"
  EC50: "≤ 10 nM"
- Molecule: "CS(=O)(=O)NCC1(c2ccc(N3CCC[C@@H](NC(=O)Nc4ccc(OC(F)F)nc4)C3=O)cc2)CC1 [Example 36]"
  Tested system: "human FPR2 receptors (Homo sapiens (Human), UniProt P25090)"
  EC50: "≤ 10 nM"
- Molecule: "CS(=O)(=O)NCC1(c2ccc(N3CCC[C@@H](NC(=O)Nc4ncc(C(F)(F)F)cc4F)C3=O)cc2)CC1"
  Tested system: "human FPR2 receptors (Homo sapiens (Human), UniProt P25090)"
  EC50: "10 to 100 nM"
- Molecule: "CS(=O)(=O)NCC1(c2ccc(N3CCC[C@@H](NC(=O)Nc4ncc(Cl)cc4F)C3=O)cc2F)CC1"
  Tested system: "human FPR2 receptors (Homo sapiens (Human), UniProt P25090)"
  EC50: "≤ 10 nM"
- Molecule: "O=C(Nc1ccc(C(F)(F)F)cn1)N[C@@H]1CCCN(c2ccc(C3(CN4CCCC4)CCC3)cc2)C1=O"
  Tested system: "human FPR2 receptors (Homo sapiens (Human), UniProt P25090)"
  EC50: "100 to 1250 nM"

// for each molecule in input: emit EC50
1. CS(=O)(=O)NCC1(c2ccc(N3CCC[C@@H](NC(=O)Nc4ccc(C(F)(F)F)cn4)C3=O)c(F)c2)CC1
2. CS(=O)(=O)NCC1(c2ccc(N3CCC[C@@H](NC(=O)Nc4ncc(C(F)(F)F)cc4F)C3=O)cc2F)CC1

### Response
1: 10 to 100 nM; 2: 10 to 100 nM

// for each molecule in input: emit EC50
1. COc1cnc(NC(=O)N[C@H]2CCCN(c3ccc(C4(CNS(C)(=O)=O)CCC4)cc3)C2=O)cn1
2. COc1cnc(NC(=O)N[C@@H]2CCCN(c3ccc(C4(CNS(C)(=O)=O)CC4)cc3)C2=O)c(F)c1
3. CS(=O)(=O)NCC1(c2ccc(N3CCC[C@@H](NC(=O)Nc4ccc(C(F)(F)F)cn4)C3=O)cc2)CC1
4. O=C(Nc1ccc(C(F)(F)F)nc1)N[C@@H]1CCCN(c2ccc(C3(CO)CC3)cc2)C1=O
5. CS(=O)(=O)NCC1(c2ccc(N3CCC[C@@H](NC(=O)Nc4ncc(Cl)cc4F)C3=O)cc2)CC1
6. CS(=O)(=O)NCC1(c2ccc(N3CCC[C@@H](NC(=O)Nc4ncc(C(F)(F)F)cc4F)C3=O)cc2)CCC1
7. CS(=O)(=O)NCC1(c2ccc(N3CCC[C@@H](NC(=O)Nc4ccc(C(F)(F)F)cn4)C3=O)cc2)CCCC1

### Response
["10 to 100 nM", "10 to 100 nM", "≤ 10 nM", "100 to 1250 nM", "≤ 10 nM", "≤ 10 nM", "10 to 100 nM"]

====

# Tested system: human FPR2 receptors (Homo sapiens (Human))
# Procedure summary: FPR2 cyclic adenosine monophosphate (cAMP) assay
# Format: cell-based
# Setup conditions: hFPR2 Assay, CHO cells overexpressing human FPR2; potency bins; read-out: hFPR2 agonist activity EC50 values
pEC50: −log10 of the molar value.
Provide the reported pEC50 of each item.

- Molecule: "CS(=O)(=O)NCC1(c2ccc(N3CCC[C@@H](NC(=O)Nc4ccc(C(F)(F)F)cn4)C3=O)cc2)CCC1 [Example 28]"
  pEC50: "≥ 8.00"
- Molecule: "CS(=O)(=O)NCC1(c2ccc(N3CCC[C@H](NC(=O)Nc4ccc(C(F)(F)F)cc4)C3=O)cc2F)CC1 [Example 15]"
  pEC50: "7.00 to 8.00"
- Molecule: "CS(=O)(=O)NCC1(c2ccc(N3C[C@H](O)C[C@@H](NC(=O)Nc4ncc(Cl)cc4F)C3=O)cc2)CC1 [Example 70]"
  pEC50: "7.00 to 8.00"

// for each molecule in input: emit pEC50
1. N#CC1(c2ccc(N3CCC[C@@H](NC(=O)Nc4ccc(C(F)(F)F)cc4)C3=O)cc2)CC1 [Example 49]
2. CS(=O)(=O)NCC1(c2ccc(N3CCC[C@H](NC(=O)Nc4cnc(Cl)cn4)C3=O)cc2)CCC1 [Example 12]

### Response
1. ≥ 8.00
2. ≥ 8.00

// for each molecule in input: emit pEC50
1. COc1cnc(NC(=O)N[C@@H]2CCCN(c3ccc(C4(CNS(C)(=O)=O)CC4)cc3)C2=O)cn1 [Example 9]
2. COc1cnc(NC(=O)N[C@@H]2CCCN(c3ccc(C4(CNS(C)(=O)=O)CCC4)cc3)C2=O)cn1 [Example 7]

### Response
1: ≥ 8.00; 2: ≥ 8.00

====

# Tested system: human FPR2 receptors (Homo sapiens (Human), UniProt P25090)
# Procedure summary: FPR2 cyclic adenosine monophosphate (cAMP) assay
# Assay type: cell-based
# Setup conditions: hFPR2 Assay, CHO cells overexpressing human FPR2; potency bins; read-out: hFPR2 agonist activity EC50 values
Readout kind: EC50

Here's what some known entries look like.
- Structure smiles string: "CN(C)CC1(c2ccc(N3CCC[C@@H](NC(=O)Nc4ccc(C(F)(F)F)nc4)C3=O)cc2)CC1"
  EC50: "100 to 1250 nM"
- Structure smiles string: "O=C(Nc1ccc(C(F)(F)F)cn1)N[C@@H]1CCCN(c2ccc(C3(CN4CCOCC4)CCCC3)cc2)C1=O"
  EC50: "100 to 1250 nM"
- Structure smiles string: "CS(=O)(=O)NCC1(c2ccc(N3CCC[C@@H](NC(=O)Nc4ncc(Cl)cc4Cl)C3=O)cc2F)CC1"
  EC50: "100 to 1250 nM"
- Structure smiles string: "CS(=O)(=O)NCC1(c2ccc(N3CCC[C@H](NC(=O)Nc4ccc(C(F)(F)F)nc4)C3=O)cc2)CC1"
  EC50: "100 to 1250 nM"
- Structure smiles string: "O=C(Nc1ccc(C(F)(F)F)nc1)N[C@@H]1CCCN(c2ccc(C3(CN4CCOCC4)CC3)cc2)C1=O"
  EC50: "10 to 100 nM"
- Structure smiles string: "CS(=O)(=O)NCC1(c2ccc(N3CCC[C@H](NC(=O)Nc4ccc(C(F)(F)F)nc4)C3=O)cc2)CCC1"
  EC50: "100 to 1250 nM"

# ---- query compound ----
Input `Cc1cnc(NC(=O)N[C@@H]2CCCN(c3ccc(C4(CNS(C)(=O)=O)CC4)cc3)C2=O)cn1` . Output EC50: ≤ 10 nM

====

# Tested system: human FPR1 receptors (Homo sapiens (Human), UniProt P21462)
# Sequence (P21462 whole entry): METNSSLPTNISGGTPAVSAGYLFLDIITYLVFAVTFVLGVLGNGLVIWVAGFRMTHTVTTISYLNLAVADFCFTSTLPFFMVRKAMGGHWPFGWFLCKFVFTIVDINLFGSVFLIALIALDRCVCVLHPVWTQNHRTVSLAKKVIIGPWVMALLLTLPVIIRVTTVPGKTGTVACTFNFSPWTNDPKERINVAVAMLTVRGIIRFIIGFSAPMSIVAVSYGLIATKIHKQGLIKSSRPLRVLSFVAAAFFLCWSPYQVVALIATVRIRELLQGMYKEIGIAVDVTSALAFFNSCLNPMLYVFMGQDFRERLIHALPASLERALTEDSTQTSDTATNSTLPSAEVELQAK
# Procedure summary: FPR1 cyclic adenosine monophosphate (cAMP) assay
# Setup conditions: CHO cells overexpressing human FPR1; forskolin 10 μM, IBMX 200 μM; inhibition of cAMP production; read-out: hFPR1 cAMP EC50
Provide the reported pEC50 of each item.
Give bare numbers, as −log10 of the molar value.

Here's what some known entries look like.
- Structure smiles string: "O=C(Nc1ccc(C(F)(F)F)nc1)N[C@@H]1CCCN(c2ccc(C3(CN4CCOCC4)CCC3)cc2)C1=O"
  Readout kind: "pEC50"
  Recorded value: 6.25
- Structure smiles string: "CS(=O)(=O)NCC1(c2ccc(N3C[C@@H](O)C[C@@H](NC(=O)Nc4ncc(Cl)cc4F)C3=O)cc2)CC1"
  Readout kind: "pEC50"
  Recorded value: 5.68

# ---- query compound ----
Input `CS(=O)(=O)NCC1(c2ccc(N3CCC[C@@H](NC(=O)Nc4ccc(C(F)(F)F)cc4)C3=O)cc2)CC1` . Output pEC50: 7.48

====

# Tested system: UniProt P21462
# Procedure summary: FPR1 cyclic adenosine monophosphate (cAMP) assay
# Setup conditions: CHO cells overexpressing human FPR1; forskolin 10 μM, IBMX 200 μM; inhibition of cAMP production; read-out: hFPR1 cAMP EC50
# Description: FPR2 and FPR1 Cyclic Adenosine Monophosphate (cAMP) Assays. […] The level of intracellular cAMP was determined using the HTRF HiRange cAMP assay reagent kit (Cisbio) according to manufacturer's instruction. […] After a 1-h room temperature incubation, time-resolved fluorescence intensity was measured using the Envision (Perkin-Elmer) at 400 nm excitation and dual emission at 590 nm and 665 nm. […]
Provide the reported pEC50 of each item.
Numbers only, as −log10 of the molar value.

Here's what some known entries look like.
- Molecule: "CS(=O)(=O)NCC1(c2ccc(N3CCC[C@@H](NC(=O)Nc4cnc(Cl)cn4)C3=O)cc2)CCC1 [Example 6]"
  Tested system: "UniProt P21462"
  pEC50: 7.00
- Molecule: "O=C(Nc1ccc(C(F)(F)F)nc1)N[C@H]1CCCN(c2ccc(C3(CN4CCCC4)CCCC3)cc2)C1=O [Example 58]"
  Tested system: "UniProt P21462"
  pEC50: 5.47

// for each molecule in input: emit pEC50
1. O=C(Nc1ccc(C(F)(F)F)nc1)N[C@H]1CCCN(c2ccc(C3(CN4CCOCC4)CCC3)cc2)C1=O [Example 62]
2. CS(=O)(=O)NCC1(c2ccc(N3C[C@@H](O)C[C@H](NC(=O)Nc4ncc(C(F)(F)F)cc4F)C3=O)cc2)CC1 [Example 69]

### Response
1: 5.96; 2: 6.18
